Assay: physchem
Conditions: pH 7.4, aqueous buffer, kinetic from dmso stock
Listed next: entries and their corresponding solubility kinetic at 1.5 h.

Molecule	Reported measurement
CC(C)OC(=O)C1=CN(C(=O)N2CCN(C)CC2)CC(C)(C)c2c1[nH]c1cc(F)ccc21 [Example 35]	> 10 µM
CC1(C)CN(C(=O)c2ccc(F)c(F)c2)C=C(C(=O)OC[C@@H](O)CO)c2[nH]c3ccccc3c21 [Example 171]	> 10 µM
CC1(C)CN(C(=O)c2ccc(F)c(F)c2)C=C(C(=O)OCCO)c2[nH]c3ccccc3c21 [Example 196]	1 to 10 µM
CC(C)OC(=O)C1=CN(C(=O)N2CCC[C@H](CN(C)C)C2)CC(C)(C)c2c1[nH]c1ccccc21 [Example 51]	> 10 µM

Value of solubility kinetic at 1.5 h reported for the molecule CC(C)OC(=O)C1=CN(C(=O)N[C@H]2CCCNC2)CC(C)(C)c2c1[nH]c1ccccc21 [Example 54] is > 10 µM

Value of solubility kinetic at 1.5 h reported for the molecule CC(C)OC(=O)C1=CN(C(=O)N2CCN(CC(=O)N3CCCC3)CC2)CC(C)(C)c2c1[nH]c1ccccc21 [Example 37] is > 10 µM

Value of solubility kinetic at 1.5 h reported for the molecule CC(C)OC(=O)C1=CN(C(=O)c2cc(C(F)(F)F)cc(C(F)(F)F)c2)CC(C)(C)c2c1[nH]c1ccccc21 [Example 135] is 1 to 10 µM

----------
Biological target: human farnesoid X receptor (Homo sapiens, UniProt Q96RI1)
Construct: CMX-farnesoid X receptor (full length human farnesoid X receptor); expressed in transfected cells; host or cells: CV-1 African Green Monkey Kidney cells
Sequence (Q96RI1 1-472 isoform Q96RI1-2): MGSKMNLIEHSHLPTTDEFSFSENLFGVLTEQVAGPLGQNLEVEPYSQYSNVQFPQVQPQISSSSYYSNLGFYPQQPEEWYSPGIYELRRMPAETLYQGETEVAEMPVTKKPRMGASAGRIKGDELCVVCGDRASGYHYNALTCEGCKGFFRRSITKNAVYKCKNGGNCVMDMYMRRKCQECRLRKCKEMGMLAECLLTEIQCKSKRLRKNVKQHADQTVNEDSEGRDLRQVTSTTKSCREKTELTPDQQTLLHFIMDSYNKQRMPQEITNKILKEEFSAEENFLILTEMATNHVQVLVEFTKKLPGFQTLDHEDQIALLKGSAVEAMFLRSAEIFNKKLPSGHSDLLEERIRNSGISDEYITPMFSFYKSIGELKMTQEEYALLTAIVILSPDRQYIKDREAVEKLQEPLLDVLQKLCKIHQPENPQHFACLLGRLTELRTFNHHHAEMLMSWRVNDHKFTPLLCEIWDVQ
Sequence (P19793 1-462 partner): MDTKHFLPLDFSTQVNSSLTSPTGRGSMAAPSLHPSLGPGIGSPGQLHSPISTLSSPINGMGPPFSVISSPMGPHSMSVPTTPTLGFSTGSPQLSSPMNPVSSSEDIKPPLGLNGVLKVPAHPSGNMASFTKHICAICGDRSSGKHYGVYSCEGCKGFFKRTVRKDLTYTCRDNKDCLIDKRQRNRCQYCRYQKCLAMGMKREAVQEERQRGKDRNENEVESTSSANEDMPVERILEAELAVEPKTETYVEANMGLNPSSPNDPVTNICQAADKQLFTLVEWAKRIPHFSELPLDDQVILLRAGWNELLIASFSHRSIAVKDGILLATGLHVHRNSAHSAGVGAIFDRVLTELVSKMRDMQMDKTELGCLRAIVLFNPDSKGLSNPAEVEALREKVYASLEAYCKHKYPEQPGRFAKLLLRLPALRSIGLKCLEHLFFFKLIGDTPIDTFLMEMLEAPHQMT
Assay: FXR in vitro assays (farnesoid X receptor/ECREx7 co-transfection assay, TR-FRET assay), Table I
Assay type: cell-based
Settings: read-out: % Efficacy
Assay endpoint: Emax

Previously resolved entries follow.
Molecule smiles	Target	Emax
CC(C)OC(=O)C1=CN(C(=O)N2CCC(N3CCCC3)CC2)CC(C)(C)c2c1[nH]c1ccccc21	human farnesoid X receptor (Homo sapiens, UniProt Q96RI1)	80 to 100%
CCN(CC)C(=O)N1C=C(C(=O)OC(C)C)c2[nH]c3ccccc3c2C(C)(C)C1	human farnesoid X receptor (Homo sapiens, UniProt Q96RI1)	> 100%
CC(C)OC(=O)C1=CN(C(=O)c2cc(F)cc(C(F)(F)F)c2)CC(C)(C)c2c1[nH]c1ccccc21	human farnesoid X receptor (Homo sapiens, UniProt Q96RI1)	> 100%

Value of Emax reported for the compound CC(C)OC(=O)C1=CN(C(=O)C23C[C@H]4C[C@@H](C2)C[C@@H](C3)C4)CC(C)(C)c2c1[nH]c1ccccc21 is > 100%

----------
Biological target: human farnesoid X receptor (Homo sapiens)
Construct: CMX-farnesoid X receptor (full length human farnesoid X receptor); expressed in transfected cells; host or cells: CV-1 African Green Monkey Kidney cells
Sequence (Q96RI1 1-472 isoform Q96RI1-2): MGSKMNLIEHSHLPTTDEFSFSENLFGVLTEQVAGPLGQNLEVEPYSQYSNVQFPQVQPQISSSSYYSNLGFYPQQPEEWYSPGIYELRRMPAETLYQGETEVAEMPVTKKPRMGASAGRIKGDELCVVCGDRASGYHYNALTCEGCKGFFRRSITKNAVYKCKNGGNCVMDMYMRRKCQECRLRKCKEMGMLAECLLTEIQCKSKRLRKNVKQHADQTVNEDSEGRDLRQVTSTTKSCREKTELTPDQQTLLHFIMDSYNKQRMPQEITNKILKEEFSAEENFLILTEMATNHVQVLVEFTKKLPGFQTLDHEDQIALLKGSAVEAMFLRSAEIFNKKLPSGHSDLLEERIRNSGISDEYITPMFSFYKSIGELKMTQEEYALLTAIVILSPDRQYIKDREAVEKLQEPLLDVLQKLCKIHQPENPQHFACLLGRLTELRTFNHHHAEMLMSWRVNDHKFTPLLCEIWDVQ
Sequence (P19793 1-462 partner): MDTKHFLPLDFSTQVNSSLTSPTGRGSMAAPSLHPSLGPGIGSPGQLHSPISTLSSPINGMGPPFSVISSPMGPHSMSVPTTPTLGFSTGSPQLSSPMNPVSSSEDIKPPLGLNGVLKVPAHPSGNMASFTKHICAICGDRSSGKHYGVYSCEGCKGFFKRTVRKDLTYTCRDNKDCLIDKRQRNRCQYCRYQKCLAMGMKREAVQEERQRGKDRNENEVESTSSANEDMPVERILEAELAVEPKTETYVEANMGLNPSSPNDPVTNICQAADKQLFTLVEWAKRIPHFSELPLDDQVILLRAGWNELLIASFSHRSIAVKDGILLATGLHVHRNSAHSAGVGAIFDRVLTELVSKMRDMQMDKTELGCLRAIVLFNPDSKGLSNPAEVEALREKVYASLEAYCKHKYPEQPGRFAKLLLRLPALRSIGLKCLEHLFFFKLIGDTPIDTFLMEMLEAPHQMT
Assay: FXR in vitro assays (farnesoid X receptor/ECREx7 co-transfection assay, TR-FRET assay), Table I
Format: cell-based
Conditions: agonist activity, one or more of the in vitro assays; read-out: EC50
Assay endpoint: EC50

Previously resolved entries follow.
Molecule smiles	EC50
CC(C)OC(=O)C1=CN(C(=O)c2ccc(F)c(Cl)c2)CC(C)(C)c2c1[nH]c1ccccc21	1 to 10 nM
CC(C)OC(=O)C1=CN(C(=O)c2ccc(Cl)c(Cl)c2)CC(C)(C)c2c1[nH]c1ccccc21	10 to 100 nM
CC(C)OC(=O)C1=CN(C(=O)N2CCCCCC2)CC(C)(C)c2c1[nH]c1ccccc21	1 to 10 nM

Now look at this one.
Value of EC50 reported for the compound CC(C)OC(=O)C1=CN(C(=O)c2cccc3c2OC(F)(F)O3)CC(C)(C)c2c1[nH]c1ccccc21 is 10 to 100 nM

----------
Biological target: human farnesoid X receptor (Homo sapiens)
Construct: CMX-farnesoid X receptor (full length human farnesoid X receptor); expressed in transfected cells; host or cells: CV-1 African Green Monkey Kidney cells
Assay: FXR in vitro assays (farnesoid X receptor/ECREx7 co-transfection assay, TR-FRET assay), Table I
Assay type: cell-based
Conditions: agonist activity, one or more of the in vitro assays; read-out: EC50
Listed next: entries and their corresponding EC50.

Previously resolved entries follow.
Compound	Target	EC50
CC(C)OC(=O)C1=CN(C(=O)c2cc(F)cc(C(F)(F)F)c2)CC(C)(C)c2c1[nH]c1ccccc21 [Example 134]	human farnesoid X receptor (Homo sapiens)	10 to 100 nM
CC(C)OC(=O)C1=CN(C(=O)c2cc(C(F)(F)F)cc(C(F)(F)F)c2)CC(C)(C)c2c1[nH]c1ccccc21 [Example 135]	human farnesoid X receptor (Homo sapiens)	10 to 100 nM
CC(C)OC(=O)C1=CN(C(=O)c2ccc(F)cc2F)CC(C)(C)c2c1[nH]c1ccccc21 [Example 73]	human farnesoid X receptor (Homo sapiens)	1 to 10 nM

Value of EC50 reported for the compound CC(C)OC(=O)C1=CN(C(=O)c2ccc(C(F)(F)F)c(F)c2F)CC(C)(C)c2c1[nH]c1ccccc21 [Example 138] is 10 to 100 nM

Value of EC50 reported for the compound Cc1ccc(C(=O)N2C=C(C(=O)OC(C)C)c3[nH]c4ccccc4c3C(C)(C)C2)cc1F [Example 130] is 10 to 100 nM

Value of EC50 reported for the compound CC(C)OC(=O)C1=CN(C(=O)N2CCN(CC3CCN(C)CC3)CC2)CC(C)(C)c2c1[nH]c1ccccc21 [Example 29] is 1000 to 10000 nM

Value of EC50 reported for the compound CC(C)OC(=O)C1=CN(C(=O)c2cc(F)c(F)c(OCCN3CCOCC3)c2)CC(C)(C)c2c1[nH]c1ccccc21 [Example 179] is 10 to 100 nM
